# system: hGLP1 receptor (Homo sapiens)
# Construct: expressed in transfected cells; host or cells: HEK (human embryonic kidney) cells co-expressing hGLP1 receptor and CRE-Luciferase
# Sequence (P43220 24-463): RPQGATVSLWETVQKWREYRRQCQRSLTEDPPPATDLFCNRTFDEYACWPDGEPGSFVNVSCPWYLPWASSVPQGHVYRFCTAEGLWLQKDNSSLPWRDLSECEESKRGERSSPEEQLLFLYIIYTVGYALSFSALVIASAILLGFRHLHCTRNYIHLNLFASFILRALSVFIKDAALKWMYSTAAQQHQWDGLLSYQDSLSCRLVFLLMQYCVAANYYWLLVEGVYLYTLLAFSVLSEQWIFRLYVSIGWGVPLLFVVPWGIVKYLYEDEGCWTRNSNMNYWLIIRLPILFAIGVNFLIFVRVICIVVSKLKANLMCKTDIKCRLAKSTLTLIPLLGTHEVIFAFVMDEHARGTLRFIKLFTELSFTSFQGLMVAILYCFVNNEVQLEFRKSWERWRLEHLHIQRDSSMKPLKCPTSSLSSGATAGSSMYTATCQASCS
# assayNotes: GLP-1 receptor agonism assay (HTRF cAMP, HEK cells co-expressing hGLP1 receptor and CRE-Luciferase)
# Assay type: cell-based
# recordedConditions: HEK293; Table 6 potency profile
Square brackets hold non-standard residues; d marks the D form. Peptide text beside a SMILES is read from it. Bip = N[C@@H](Cc1ccc(-c2ccccc2)cc1)C(=O)O; αMePhe(2-F) = C[C@](N)(Cc1ccccc1F)C(=O)O; Aib = CC(C)(N)C(=O)O
observable: Emax (%)

C[C@@H](O)[C@H](NC(=O)CNC(=O)[C@H](CCC(=O)O)NC(=O)C(C)(C)NC(=O)[C@@H](N)Cc1c[nH]cn1)C(=O)N[C@@](C)(Cc1ccccc1F)C(=O)N[C@H](C(=O)N[C@@H](CO)C(=O)N[C@@H](CC(=O)O)C(=O)N[C@@H](Cc1ccc(-c2ccccc2)cc1)C(=O)NC(C)(C)C(N)=O)[C@@H](C)O [RXL-3052] (H-H[Aib]EGT[αMePhe(2-F)]TSD[Bip][Aib]-NH2)
112
C[C@@H](O)[C@H](NC(=O)CNC(=O)[C@H](CCC(=O)O)NC(=O)C(C)(C)NC(=O)[C@@H](N)Cc1c[nH]cn1)C(=O)N[C@@H](Cc1ccc(-c2ccccc2)cc1)C(=O)N[C@H](C(=O)N[C@@H](CO)C(=O)N[C@@H](CC(=O)O)C(=O)N[C@@H](Cc1ccc(-c2ccccc2)cc1)C(=O)N[C@@H](Cc1ccc(-c2ccccc2)cc1)C(N)=O)[C@@H](C)O [RXL-3024] (H-H[Aib]EGT[Bip]TSD[Bip][Bip]-NH2)
102
C[C@H](NC(=O)[C@@H](N)Cc1c[nH]cn1)C(=O)N[C@@H](CCC(=O)O)C(=O)NCC(=O)N[C@H](C(=O)N[C@@H](Cc1ccccc1F)C(=O)N[C@H](C(=O)N[C@@H](CO)C(=O)N[C@@H](CC(=O)O)C(=O)N[C@@H](Cc1ccc(-c2ccccc2)cc1)C(=O)N[C@@H](Cc1ccc(-c2ccccc2)cc1)C(N)=O)[C@@H](C)O)[C@@H](C)O
102

###

# system: hGLP1 receptor (Homo sapiens)
# Construct: expressed in transfected cells; host or cells: HEK (human embryonic kidney) cells co-expressing hGLP1 receptor and CRE-Luciferase
# assayNotes: GLP-1 receptor agonism assay (HTRF cAMP, HEK cells co-expressing hGLP1 receptor and CRE-Luciferase)
# Format: cell-based
# recordedConditions: HEK293; Table 6 potency profile
Square brackets hold non-standard residues; d marks the D form. Peptide text beside a SMILES is read from it. Bip = N[C@@H](Cc1ccc(-c2ccccc2)cc1)C(=O)O; αMePhe(2-F) = C[C@](N)(Cc1ccccc1F)C(=O)O; Aib = CC(C)(N)C(=O)O
observable: Emax

C[C@@H](O)[C@H](NC(=O)CNC(=O)[C@H](CCC(=O)O)NC(=O)C(C)(C)NC(=O)[C@@H](N)Cc1c[nH]cn1)C(=O)N[C@@H](Cc1ccccc1C#N)C(=O)N[C@H](C(=O)N[C@@H](CO)C(=O)N[C@@H](CC(=O)O)C(=O)N[C@@H](Cc1ccc(-c2ccccc2)cc1)C(=O)N[C@@H](Cc1ccc(-c2ccccc2)cc1)C(N)=O)[C@@H](C)O [RXL-3015]
101%
C[C@@H](O)[C@H](NC(=O)CNC(=O)[C@H](CCC(=O)O)NC(=O)C(C)(C)NC(=O)[C@@H](N)Cc1c[nH]cn1)C(=O)N[C@@H](Cc1ccccc1Br)C(=O)N[C@H](C(=O)N[C@@H](CO)C(=O)N[C@@H](CC(=O)O)C(=O)N[C@@H](Cc1ccc(-c2ccccc2)cc1)C(=O)N[C@@H](Cc1ccc(-c2ccccc2)cc1)C(N)=O)[C@@H](C)O [RXL-3010]
121%
C[C@@H](O)[C@H](NC(=O)CNC(=O)C(C)(C)NC(=O)C(C)(C)NC(=O)[C@@H](N)Cc1c[nH]cn1)C(=O)N[C@@](C)(Cc1ccccc1F)C(=O)N[C@H](C(=O)N[C@@H](CO)C(=O)N[C@@H](CC(=O)O)C(=O)N[C@@H](Cc1ccc(-c2ccccc2)cc1)C(=O)N[C@@H](Cc1ccc(-c2ccccc2)cc1)C(N)=O)[C@@H](C)O [RXL-3031] (H-H[Aib][Aib]GT[αMePhe(2-F)]TSD[Bip][Bip]-NH2)
121%
C[C@@H](O)[C@H](NC(=O)CNC(=O)[C@H](CCC(=O)O)NC(=O)C(C)(C)NC(=O)[C@@H](N)Cc1c[nH]cn1)C(=O)NC(C)(C)C(=O)N[C@H](C(=O)N[C@@H](CO)C(=O)N[C@@H](CC(=O)O)C(=O)N[C@@H](Cc1ccc(-c2ccccc2)cc1)C(=O)N[C@@H](Cc1ccc(-c2ccccc2)cc1)C(N)=O)[C@@H](C)O [RXL-3028] (H-H[Aib]EGT[Aib]TSD[Bip][Bip]-NH2)
76.1%
C[C@H](NC(=O)C(C)(C)NC(=O)[C@@H](N)Cc1c[nH]cn1)C(=O)NCC(=O)N[C@H](C(=O)N[C@@H](Cc1ccccc1F)C(=O)N[C@H](C(=O)N[C@@H](CO)C(=O)N[C@@H](CC(=O)O)C(=O)N[C@@H](Cc1ccc(-c2ccccc2)cc1)C(=O)N[C@@H](Cc1ccc(-c2ccccc2)cc1)C(N)=O)[C@@H](C)O)[C@@H](C)O [RXL-3003]
108%
